biological target: LecB (Pseudomonas aeruginosa); construct: purified LecB overexpressed in P. aeruginosa (lecB from PAO1, pJNLecB); homotetramer of 114 amino acid monomers; test: ITC ([…] K, three titrations)
Sequence (Q9HYN5 entry or part of it): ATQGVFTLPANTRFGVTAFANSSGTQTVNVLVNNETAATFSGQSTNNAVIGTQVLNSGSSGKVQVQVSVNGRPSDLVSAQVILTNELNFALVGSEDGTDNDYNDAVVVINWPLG
Please go through the items and note down their pKd.
Numbers only, as −log10 of the molar value.

- OC[C@H]1O[C@H](O[C@@H]2C(O)O[C@H](CO)[C@@H](O)[C@@H]2O)[C@@H](O)[C@@H](O)[C@@H]1O (stereo partly drawn) [α-1,2′ mannobiose]: 4.58

Now turn to the next compound.
Tell us which pKd value is on record for OC[C@H]1O[C@H](O[C@H]2[C@H](O)[C@@H](CO)OC(O)[C@H]2O)[C@@H](O)[C@@H](O)[C@@H]1O (stereo partly drawn) [α-1,3′ mannobiose]
4.47
